assayed.system: GLP-1 receptor (UniProt P43220 24-463, limits assumed)
experimental.protocol: cell-based or functional assay
Numbered stars: 1 amine (or outer) side, 2 acyl side, 3 side chain; on linkers, the order of the positions; unused ones are H or OH. Square brackets hold non-standard residues; d marks the D form. Primed or numbered codes have the meaning given here. Side chains are listed from the residue outwards. Ends that are not written are not given here. * marks the point of attachment. 40K‑TE PEG = 40 kDa PEG covalently bound via thioether, formed by reaction of the free thiol of the peptide (Cys side chain) with an iodoacetic-functionalized PEG; 20K‑TE PEG″ = 20 kDa PEG attached via a thioether, formed by reacting the free thiol of the peptide with an iodoacetic-functionalized PEG; γGlu = O=C(O)[C@H](CCC(=O)[*:2])N[*:1]; Palmitoyl = CCCCCCCCCCCCCCCC(=O)*; Aib = CC(C)(N)C(=O)O
Mark YES only for EC50 (nM) at GLP-1 receptor values smaller than 0.05 nM; exact matches and larger values are NO.

- binder: "H[Aib]QGTFTSDYSKYLDEKRA[Aib]EFVC(40K‑TE PEG)WLMDT-NH2 [peptide of SEQ ID NO: 15]"
  assigned.label: "NO"
- binder: "H[Aib]QGTFTSDYSKYLDERRA[Aib]EFVC(40K‑TE PEG)WLLDT-NH2 [peptide of SEQ ID NO: 14]"
  assigned.label: "NO"
- binder: "H[dS]QGTFTSDK(EDTA amide)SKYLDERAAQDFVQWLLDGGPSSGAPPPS-NH2 [peptide of SEQ ID NO: 55]"
  assigned.label: "NO"
- binder: "H[Aib]QGTFTSDYSKYLDEKRA[Aib]EFVC(40K‑TE PEG)WLL[Aib]T-NH2 [peptide of SEQ ID NO: 41]"
  assigned.label: "NO"
- binder: "H[Aib]QGTFTSDYSKYLDEKRA[Aib]EFVC(40K‑TE PEG)WLLDE-NH2 [peptide of SEQ ID NO: 16]"
  assigned.label: "NO"
- binder: "H[Aib]QGTFTSDYSKYLDEKRA[Aib]EFVC(40K‑TE PEG)WLL[Aib]GGPSSGAPPPS-NH2 [peptide of SEQ ID NO: 51]"
  assigned.label: "NO"
- binder: "HXQGTFTSDKSKYLDERAAQDFVQWLMDT (Aib at 2; Lys 10 acylated, printed K(γEyEC16); C-terminal amide) [peptide of SEQ ID NO: 61]"
  assigned.label: "YES"
- binder: "H[dS]QGTFTSDK([γGlu-Palmitoyl])SKYLDEQAAKEFIC(20K‑TE PEG″)WLLDT-NH2 [peptide of SEQ ID NO: 44]"
  assigned.label: "YES"
- binder: "H[Aib]QGTFTSDYSKYLDEK[Aib]AKEFVC(40K‑TE PEG)WLLDT-NH2 [peptide of SEQ ID NO: 52]"
  assigned.label: "NO"
- binder: "H[Aib]QGTFTSDYSKYLDERRA[Aib]EFVC(40K‑TE PEG)WLLDGGPSSGAPPPS-NH2 [peptide of SEQ ID NO: 35]"
  assigned.label: "NO"
- binder: "H[Aib]QGTFTSDYSKYLD[Aib]KRAKEFVQWLLC(40K‑TE PEG)T-OH [peptide of SEQ ID NO: 39]"
  assigned.label: "NO"
- binder: "H[Aib]QGTFTSDYSKYLDEKRA[Aib]EFV[Aib]WLLC(40K‑TE PEG)T-NH2 [peptide of SEQ ID NO: 42]"
  assigned.label: "NO"
- binder: "H[Aib]QGTFTSDKSKYLDERRA[Aib]DFVQWLMNT-NH2 (not fully specified (residue 10); printed as HaibQGTFTSDK(C16 acyl)SKYLDERRAaibDFVQWLMNT-amide) [peptide of SEQ ID NO: 59]"
  assigned.label: "YES"
- binder: "H[dS]QGTFTSDK(benzoylpropionyl)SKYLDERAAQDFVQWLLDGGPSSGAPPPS-NH2 [peptide of SEQ ID NO: 49]"
  assigned.label: "YES"
